The reported numbers originate from the supplement of paper PMC8975748.

System: Saccharomyces cerevisiae BY4741 SeMeCo community
Assay Protocol: z-score of subpopulation abundance vs DMSO median, subpopulation auxotrophic for HUM; higher = larger share of this subpopulation than in DMSO controls
Condition Set: 10 µM; 24 h; SM minimal medium; subpopulation (auxotrophy): HUM
Where a name gives a salt, the structure may show the parent alone.

[
  {
    "Compound": "Cc1ccccc1C(OCCN(C)C)c1ccccc1 (stereo not given) [Orphenadrine Citrate]",
    "z-score of subpopulation abundance": -0.13
  },
  {
    "Compound": "CC1(C)[C@H](C(=O)O)N2C(=O)C[C@H]2S1(=O)=O",
    "z-score of subpopulation abundance": -0.35
  },
  {
    "Compound": "CN1CCCN=C1/C=C/c1cccc(O)c1 [Oxantel Pamoate]",
    "z-score of subpopulation abundance": -1.13
  },
  {
    "Compound": "COc1ccc(Cc2cnc(N)nc2N)cc1OC",
    "z-score of subpopulation abundance": 0.18
  },
  {
    "Compound": "CC[C@H]1OC(=O)[C@H](C)[C@@H](O[C@H]2C[C@@](C)(OC)[C@@H](O)[C@H](C)O2)[C@H](C)[C@@H](O[C@@H]2O[C@H](C)C[C@H](N(C)C)[C@H]2O)[C@](C)(O)C[C@@H](C)[C@@H]2N[C@@H](COCCOC)O[C@H]([C@H]2C)[C@]1(C)O",
    "z-score of subpopulation abundance": -0.1
  },
  {
    "Compound": "CN1[C@@H]2CC[C@H]1C[C@@H](OC(=O)c1c[nH]c3ccccc13)C2 [Tropisetron]",
    "z-score of subpopulation abundance": 0.95
  },
  {
    "Compound": "O=C(Nc1c(Cl)cncc1Cl)c1ccc(OC(F)F)c(OCC2CC2)c1",
    "z-score of subpopulation abundance": -0.17
  },
  {
    "Compound": "CC(C)NNC(=O)c1ccncc1",
    "z-score of subpopulation abundance": 0.2
  },
  {
    "Compound": "O=c1n(CCCN2CCN(c3cccc(Cl)c3)CC2)nc2ccccn12 [Trazodone HCl]",
    "z-score of subpopulation abundance": 0.45
  },
  {
    "Compound": "CCC(C)(C)c1ccc(CC(C)CN2C[C@@H](C)O[C@@H](C)C2)cc1 (stereo not given in full) [Amorolfine HCl]",
    "z-score of subpopulation abundance": 6
  }
]

----------
Tested on: Saccharomyces cerevisiae BY4741 SeMeCo community
Assay Protocol: z-score of prototroph abundance vs DMSO median; higher = larger share of this subpopulation than in DMSO controls
Condition Set: 10 µM; 24 h; SM minimal medium; subpopulation (auxotrophy): Prototroph
# binarize z-score of prototroph abundance: threshold 0.2 inclusive, high side YES, low side NO

[
  {
    "Compound": "CS(=O)(=O)c1ccc([C@@H](O)[C@@H](CF)NC(=O)C(Cl)Cl)cc1",
    "Group": "YES"
  },
  {
    "Compound": "CC1(C)[C@H](C(=O)O)N2C(=O)C[C@H]2S1(=O)=O [Sulbactam sodium]",
    "Group": "NO"
  },
  {
    "Compound": "Nc1nc(N)c2nc(-c3ccccc3)c(N)nc2n1",
    "Group": "YES"
  },
  {
    "Compound": "CO[C@@]1(NC(=O)Cc2cccs2)C(=O)N2C(C(=O)O)=C(COC(N)=O)CS[C@@H]21 [Cefoxitin sodium]",
    "Group": "YES"
  },
  {
    "Compound": "CS(=O)(=O)c1ccc([C@@H](O)[C@@H](CO)NC(=O)C(Cl)Cl)cc1",
    "Group": "YES"
  },
  {
    "Compound": "Oc1c(Cl)cc(Cl)c2cccnc12",
    "Group": "NO"
  },
  {
    "Compound": "Cc1cnc(NC(=O)C2=C(O)c3ccccc3S(=O)(=O)N2C)s1",
    "Group": "YES"
  },
  {
    "Compound": "COC(=O)C1=C(C#N)NC(C)=C(C(=O)OC(C)C)C1c1cccc([N+](=O)[O-])c1 (centres undefined)",
    "Group": "YES"
  },
  {
    "Compound": "CCCN[C@H]1CCc2nc(N)sc2C1 [Pramipexole]",
    "Group": "NO"
  }
]
